system: HepG2; assay: Anticancer activity against human HepG2 cells assessed as viable cells after 48 hrs at 40 uM by SRB assay relative to control; assay type: functional; details: HepG2, 48 h, read-out: Activity
The following compounds are shown together with reported viability at 40 µM values.
Write the answer as a number in %, unit excluded.

INSERT INTO results (smiles_representation, reported_value) VALUES
  ('Nc1nc(=O)[nH]c2c1c(-c1ccccc1)cn2-c1ccc(S(=O)(=O)Nc2nccs2)cc1', 63.6),
  ('N#Cc1c(-c2ccccc2)cn(-c2ccc(S(=O)(=O)Nc3nccs3)cc2)c1NC(=O)CCC(=O)O', 49.6),
  ('N#Cc1c(-c2ccccc2)cn(-c2ccc(S(=O)(=O)Nc3ccccn3)cc2)c1NC(=O)CCC(=O)O', 78);

# input for lookup
Task: // returns reported viability at 40 µM for input CC(=O)Nc1c(C#N)c(-c2ccccc2)cn1-c1ccc(S(=O)(=O)Nc2ccccn2)cc1
Result: 69.9

Cited source for all entries: ChEMBL document CHEMBL1268828
